Target: BCL-XL (Homo sapiens)
Construct: BCL-XL degradation results in MOLT-4 cells for compounds of the invention; endogenous in cells; host or cells: MOLT-4
Sequence (Q07817 whole entry): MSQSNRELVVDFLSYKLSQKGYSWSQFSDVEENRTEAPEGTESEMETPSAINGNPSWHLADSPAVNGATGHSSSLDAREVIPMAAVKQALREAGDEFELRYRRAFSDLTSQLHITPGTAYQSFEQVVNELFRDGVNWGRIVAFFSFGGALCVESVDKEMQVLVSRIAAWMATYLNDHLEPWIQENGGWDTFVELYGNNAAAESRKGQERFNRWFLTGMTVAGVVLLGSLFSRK
Test: BCL-XL degradation assay in MOLT-4 cells (ELISA, 6 h)
Assay type: cell-based
MEASURED PARAMETER: Dmax

{"columns": ["COMPOUND", "Dmax"],
 "data": [
  ["C#Cc1ccc([C@H](CO)NC(=O)[C@@H]2C[C@@H](O)CN2C(=O)[C@@H](NC(=O)CCCCCC(=O)N2CCN(CC[C@H](CSc3ccccc3)Nc3ccc(S(=O)(=O)NC(=O)c4ccc(N5CCN([C@@H](O)c6ccccc6-c6ccc(Cl)cc6)CC5)cc4)cc3S(=O)(=O)C(F)(F)F)CC2)C(C)(C)C)cc1", "> 75%"],
  ["Cc1ncsc1-c1ccc([C@H](C)NC(=O)[C@@H]2C[C@@H](O)CN2C(=O)[C@@H](NC(=O)CCCCCC(=O)N2CCN(c3ccc(-c4ccc(Cl)cc4)c([C@H](O)C4CCN(c5ccc(C(=O)NS(=O)(=O)c6ccc(N[C@H](CCN(C)CCO)CSc7ccccc7)c(S(=O)(=O)C(F)(F)F)c6)cc5)CC4)c3)CC2)C(C)(C)C)cc1 (single isomer, unassigned)", "> 75%"],
  ["Cc1ncsc1-c1ccc([C@H](C)NC(=O)[C@@H]2C[C@@H](O)CN2C(=O)[C@@H](NC(=O)CCCCCC(=O)N2CCN(CC[C@H](CSc3ccccc3)Nc3ccc(S(=O)(=O)NC(=O)c4ccc(NC5CCOCC5)cc4)cc3S(=O)(=O)C(F)(F)F)CC2)C(C)(C)C)cc1", "50 to 75%"]
]}

Q) Fill in the blank: the reported Dmax of Cc1ncsc1-c1ccc([C@H](C)NC(=O)[C@@H]2C[C@@H](O)CN2C(=O)[C@@H](NC(=O)CCCCCCC(=O)N2CCN(Cc3ccc(-c4ccc(Cl)cc4)c([C@H](O)C4CCN(c5ccc(C(=O)NS(=O)(=O)c6ccc(N[C@H](CCN(C)CCO)CSc7ccccc7)c(S(=O)(=O)C(F)(F)F)c6)cc5)CC4)c3)CC2)C(C)(C)C)cc1 is ____.
A) > 75%

Q) Fill in the blank: the reported Dmax of Cc1ncsc1-c1ccc(CNC(=O)[C@@H]2C[C@@H](O)CN2C(=O)[C@@H](NC(=O)C2(F)CC2)C(C)(C)C)c(OCCN2CCN(CC[C@H](CSc3ccccc3)Nc3ccc(S(=O)(=O)NC(=O)c4ccc(N5CCC6(CC5)CC(N5CCC[C@H]5c5ccccc5C5CC5)C6)cc4)cc3S(=O)(=O)C(F)(F)F)CC2)c1 is ____.
A) 50 to 75%

Q) Fill in the blank: the reported Dmax of Cc1ncsc1-c1ccc([C@H](C)NC(=O)[C@@H]2C[C@@H](O)CN2C(=O)[C@@H](NC(=O)CCCCCC(=O)N2CCN(CCCN(C)CC[C@H](CSc3ccccc3)Nc3ccc(S(=O)(=O)NC(=O)c4ccc(N5CCC([C@@H](O)c6ccccc6-c6ccc(Cl)cc6)CC5)cc4)cc3S(=O)(=O)C(F)(F)F)CC2)C(C)(C)C)cc1 is ____.
A) < 50%

Q) Fill in the blank: the reported Dmax of Cc1ncsc1-c1ccc(CNC(=O)[C@@H]2C[C@@H](O)CN2C(=O)[C@@H](NC(=O)CCCCCCC(=O)N2CCN(C[C@]3(C)CCC(c4ccc(Cl)cc4)=C(CN4CCN(c5ccc(C(=O)NS(=O)(=O)c6ccc(NCCCN7CCOCC7)c(S(=O)(=O)C(F)(F)F)c6)c(Oc6cnc7[nH]ccc7c6)c5)CC4)C3)CC2)C(C)(C)C)cc1 is ____.
A) < 50%

Q) Fill in the blank: the reported Dmax of Cc1ncsc1-c1ccc([C@H](C)NC(=O)[C@@H]2C[C@@H](O)CN2C(=O)[C@@H](NC(=O)CCCCCC(=O)N2CCC(NCC[C@H](CSc3ccccc3)Nc3ccc(S(=O)(=O)NC(=O)c4ccc(N5CCN([C@@H](O)c6ccccc6-c6ccc(Cl)cc6)CC5)cc4)cc3S(=O)(=O)C(F)(F)F)CC2)C(C)(C)C)cc1 is ____.
A) 50 to 75%

Q) Fill in the blank: the reported Dmax of Cc1ncsc1-c1ccc([C@H](C)NC(=O)[C@@H]2C[C@@H](O)CN2C(=O)[C@@H](NC(=O)C2CCN(c3ccc(NC(=O)c4ccc(-c5ccc(Cl)cc5)c(CN5CCN(c6ccc(C(=O)NS(=O)(=O)c7ccc(N[C@H](CCN(C)C)CSc8ccccc8)c([N+](=O)[O-])c7)cc6)CC5)c4)cc3)CC2)C(C)(C)C)cc1 is ____.
A) < 50%

Q) Fill in the blank: the reported Dmax of Cc1ncsc1-c1ccc([C@H](C)NC(=O)[C@@H]2C[C@@H](O)CN2C(=O)[C@@H](NC(=O)CCCCC(=O)N2CCC3(CCN(CC[C@H](CSc4ccccc4)Nc4ccc(S(=O)(=O)NC(=O)c5ccc(N6CCN([C@@H](O)c7ccccc7-c7ccc(Cl)cc7)CC6)cc5)cc4S(=O)(=O)C(F)(F)F)CC3)CC2)C(C)(C)C)cc1 is ____.
A) 50 to 75%

Q) Fill in the blank: the reported Dmax of Cc1ncsc1-c1ccc([C@H](C)NC(=O)[C@@H]2C[C@@H](O)CN2C(=O)[C@@H](NC(=O)C2CCN(c3ccc(NC(=O)c4ccc(-c5ccc(Cl)cc5)c([C@H](O)C5CCN(c6ccc(C(=O)NS(=O)(=O)c7ccc(N[C@H](CCN(C)CCO)CSc8ccccc8)c(S(=O)(=O)C(F)(F)F)c7)cc6)CC5)c4)cc3)CC2)C(C)(C)C)cc1 (single isomer, unassigned) is ____.
A) < 50%

Q) Fill in the blank: the reported Dmax of C#Cc1ccc([C@H](C)NC(=O)[C@@H]2C[C@@H](O)CN2C(=O)[C@@H](NC(=O)CCCCCC(=O)N2CCN(CC[C@H](CSc3ccccc3)Nc3ccc(S(=O)(=O)NC(=O)c4ccc(N5CCC([C@@H](O)c6ccccc6-c6ccc(Cl)cc6)CC5)cc4)cc3S(=O)(=O)C(F)(F)F)CC2)C(C)(C)C)cc1 (single isomer, unassigned) is ____.
A) > 75%

These data points were gathered from patent US20260092057A1.
